The origin of these recorded values is patent US10238618B2.

Listing of entries alongside the reported Serum fatty acid (%).
# procedure text: Serum total fatty acids (% of total fatty acids), MMP dolphins versus wild Sarasota Bay dolphins
# Type: in vivo, bottlenose dolphin (Tursiops truncatus)
# condition notes: wild Sarasota Bay Dolphins (n = 19)
measure name: Serum fatty acid (%)

{"columns": ["compound", "endpoint result"],
 "data": [
  ["CCCCCCCCCCCCCCCCCCCCCC(=O)O [C22:0, behenic acid]", 0.7],
  ["CCCCCCCCCCCCCCCCCCCC(=O)O [C20:0]", 1.5],
  ["CCCCCCCCCCCCCCCCCCCCCCCC(=O)O [C24:0]", 0.5],
  ["CCCCCCCCCCCCCCCCC(=O)O [C17:0, heptadecanoic acid]", 1.3],
  ["CCCCCCCCCCCCCCC(=O)O [C15:0, pentadecanoic acid]", 1.1]
]}
